For each entry below, report its normalized growth value.
Experiment: chemical genetic growth profiling, strain panel (AID 1159580);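 note: tested at 20 µM; growth read once vehicle control cultures reached saturation at 30 °C; 1 = growth at the plate median or of vehicle wells; lower values mean less growth of the strain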
Conditions: S. cerevisiae deletion strains, growth OD, locus YOL006C, strain TOP1, stronger effect = lower value
Out of some 5,500 compounds screened, about 2,000 (36%) were called active. Roughly 18% stayed inconclusive and do not appear here. Some of the results follow.
Field format: numeric only.

[Q] Which normalized growth value belongs to c1ccc2c(c1)CCCC2C1=NCCN1 (stereo unspecified) ?
[A] 0.988

[Q] Input O=C1C(Cl)=C(Cl)C(=O)C(Cl)=C1Cl
[A] 0.357

[Q] // same read-out, input: COC(=O)c1cc(=O)c(O)c2c(O)c(O)ccc2c1
[A] 0.326

[Q] Next up: Cc1oc(C(C)(C)C)cc1C(=O)Nc1ccc([N+](=O)[O-])cc1
[A] 0.88

[Q] Same question, O=C(CCc1nc(-c2ccc(Cl)cc2)no1)NNS(=O)(=O)c1cc(Cl)c(Cl)cc1Cl this time
[A] 1.02

[Q] Ok, now CCOC(=O)N=Nc1c(O)[nH]c2ccc(F)cc12
[A] 1.03

[Q] Record: Cc1ccc(S(=O)(=O)NC(=O)NN2CCCCCC2)cc1
[A] 1.02

[Q] Follow-up entry: COc1ccccc1-c1coc2cc(O)ccc2c1=O
[A] 1.08

[Q] Field entry: C[C@@H]1O[C@@H](O[C@H]2[C@H](Oc3cc(O)c4c(=O)cc(-c5ccc(O)cc5)oc4c3)O[C@H](CO)[C@@H](O)[C@@H]2O)[C@H](O)[C@H](O)[C@H]1O
[A] 0.99

[Q] Quick one: COc1ccc(C(CN(C)C)C2(O)CCCCC2)cc1 (stereo unspecified)
[A] 1.04

[Q] Similarly, NCCC(O)C(=O)NC1CC(N)C(OC2OC(CN)C(O)C(O)C2N)C(OC2OC(CO)C(O)C2O)C1O (stereo unspecified) ?
[A] 1.05
